# Experimental details: soluble fraction after stress (log2 fold change); higher = more stays soluble; pooled small domains, quantitative proteomics;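 note: 20 min heating vs room temperature control held 20 min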
# Condition parameters: stress: 75 degC
Endpoint name: soluble fraction (log2)
Enter a number only.

Q: Tell me measured soluble fraction (log2) for HMESVQWSVFPSAKYVTIISFDPTTSGGSATAKFKVSDEARSKGFRFRIEAAIGEGIMRSEMYVIEE please.
A: 0.215

Q: Tell me measured soluble fraction (log2) for HMKDITAVISKKKGRDYYYIIVSYHLSNGKRVQKWIKTEFSVNGNNKRKLEQKRIEILQEWQNKLV please.
A: -1.04

Q: Tell me measured soluble fraction (log2) for HMSIHPRDKADLGTALSKWKKGALDDKQLELEVARVFMRTYGKKLEGQALNKAVAAWVAALTQSKK please.
A: -0.171

Q: Tell me measured soluble fraction (log2) for HMLLTEETLPQLKQIVDEFPYFQIARMLYLKNLAVLNDIRFSVELKKMSIYVPDRRKLFTLIEGE please.
A: 0.044

----------
# Experimental details: soluble fraction after stress (log2 fold change); higher = more stays soluble; pooled small domains, quantitative proteomics
# Condition parameters: stress: 75 degC
Can you tell me soluble fraction (log2) for the items I'm about to list?
Enter a number only.

Q: Tell me measured soluble fraction (log2) for HMSIYMNIYNEFKKYIIANVYKYDDKLPSVRSIALEYGINPNTVQRAFQLLEDEGYIKTISKKGVYVNYR please.
A: -0.745

Q: Tell me measured soluble fraction (log2) for HMYHPGFEALREVARQGSFIKAARALGISGPAVSKQIKSLEARLNLVLLHRTTRAVTLTEAGQRLTEILD please.
A: -2.14

Q: Tell me measured soluble fraction (log2) for HMYYDDEELDDYRGKASDAYTAAEVEQFEEVLTTMRPEEVHGWLRSLQLRGVALPDALKDEAYMIVSEQAE please.
A: -0.0106

Q: Tell me measured soluble fraction (log2) for HMHDHKTRLQELAAQRFGSAPSYLLTADGPAHDRRFHASVEVGGRSFGPGTGKSKKRAEQVAAHIAWDALS please.
A: 0.238

Q: Tell me measured soluble fraction (log2) for HMEGTVQQDKFDAYKAKFEDAISNDLNTSMAITIIYDLLKDDMNDKTKLALINDFDKVLSLNLTTA please.
A: -0.219

Q: Tell me measured soluble fraction (log2) for HMVKDLEIETIRLNNLLASDAEEVLKSLGGAKPTYKAVAVPGSNSLVIEGTKADLIKLKSIINALEDGS please.
A: 0.00865

Q: Tell me measured soluble fraction (log2) for HMINEEELLKIENIKRKYPDSKAALMPVLYFFQEKYGFISDDSIKEISQLLNISEVDIKGVVSFYEMFHEK please.
A: -1.32

Q: Tell me measured soluble fraction (log2) for HMLLTPLEETRLVIEEIVIPQKLTIDLLPRSSAIRKLQHELITHYQLRGTSVGNEPNRRLRIYP please.
A: -0.121

----------
# Experimental details: soluble fraction after stress (log2 fold change); higher = more stays soluble; pooled small domains, quantitative proteomics
# Condition parameters: stress: 75 degC
Can you tell me soluble fraction (log2) for the items I'm about to list?
Enter a number only.

Q: Tell me measured soluble fraction (log2) for HMRQPRGQRVTVREASSLLPFLFAHLTDRSRSAVKSLLRHGQIWVNGRVTTHFDMPLRPGDTVLISHERG please.
A: -1.33

Q: Tell me measured soluble fraction (log2) for HMNDPIESLTPREREVLTLMAEGRTNAAIAAQLVVTEGAVEKHTQHIFAKLGLLPDSAVHRRVKAVLALLS please.
A: -2.35

Q: Tell me measured soluble fraction (log2) for HMSSRSLTYSDFIERVDAGQVDAVTLDGERIVIRAKDGNTYVAIKPQGEDVTGSLTRDLIAKGVDVEAEPQ please.
A: 0.204

Q: Tell me measured soluble fraction (log2) for HMRSSAATMFGRIALKNKLVDEATLKKVMSELPAGADLGAVLVKQGLISEQHAEAIQKKITAHMKSAP please.
A: -0.114

Q: Tell me measured soluble fraction (log2) for HMFTKSNLEKLSNSELILKAIDSGNYSKIEFGGSEALNPDVPSYKKDLKNREELIEILSEMGM please.
A: 0.148

Q: Tell me measured soluble fraction (log2) for HMQQKNWIVRDGDGKIYGPFTTEQVLVQIDRGYFVGGEEVALYPGGRWIAISGAPEFYDRLLDALAMEG please.
A: -0.995

Q: Tell me measured soluble fraction (log2) for HMPGMLVVYVTGAVRQPGRMVTLAAGSRVSDAIDAAGGLADDADAQALNLSARLNDGDLVHVPSALD please.
A: -0.264

Q: Tell me measured soluble fraction (log2) for HMAAGVESLTEKEFAVASLVGGGASNREIAERLAMSERTVKSHLSSIFRKMDVRDRVQLALAMND please.
A: -0.0767
